# target_of_assay: PCSK9 (Homo sapiens (Human))
# Sequence (Q8NBP7 153-692): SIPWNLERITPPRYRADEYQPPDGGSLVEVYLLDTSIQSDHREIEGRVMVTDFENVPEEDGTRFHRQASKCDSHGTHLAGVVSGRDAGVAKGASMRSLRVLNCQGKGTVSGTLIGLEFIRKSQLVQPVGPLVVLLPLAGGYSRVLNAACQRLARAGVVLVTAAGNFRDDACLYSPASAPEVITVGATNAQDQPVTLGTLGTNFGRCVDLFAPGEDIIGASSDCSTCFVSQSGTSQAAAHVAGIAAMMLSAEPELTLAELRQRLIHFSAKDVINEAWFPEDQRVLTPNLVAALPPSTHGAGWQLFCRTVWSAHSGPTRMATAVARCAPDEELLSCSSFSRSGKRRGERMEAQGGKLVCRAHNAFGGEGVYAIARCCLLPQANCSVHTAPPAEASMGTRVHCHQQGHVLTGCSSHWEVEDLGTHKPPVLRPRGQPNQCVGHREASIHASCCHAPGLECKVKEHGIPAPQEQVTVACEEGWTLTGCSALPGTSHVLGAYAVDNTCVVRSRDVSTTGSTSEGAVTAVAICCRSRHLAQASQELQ
# assay_protocol: PCSK9 Alexa FRET Standard assay (displacement of AlexaFluor647 tagged cyclic peptide Reagent A)
# Type: binding
# condition_parameters: PCSK9 Alexa FRET Standard assay, 0.5 nM PCSK9, 20 nM AF cyclic peptide Reagent A; read-out: IC50
Starred links: 1 amine or outer side, 2 acyl side, 3 side chain; linkers in the order of their positions; H or OH if unused. Positions of bridges follow the written chain, without caps; N, C: chain ends. Non-standard residues stand in square brackets, D forms with d. Residues, ends and D or L forms follow the SMILES beside them. X29 = O=C([C@H](Cc1ccc(CC=[*:3])cc1)N[*:1])[*:2]; Trp(5-F) = N[C@@H](Cc1c[nH]c2ccc(F)cc12)C(=O)O; Pro(cis-4-F) = O=C(O)[C@@H]1C[C@H](F)CN1; Hag = O=C([C@H](CCC=[*:3])N[*:1])[*:2]; X6 = O=C(Cc1ccc(CN[*:2])cc1)[*:1]; αMeP = C[C@@]1(C(=O)O)CCCN1
endpoint: IC50

>  <compound>
COc1ccc(C[C@@H]2NC(=O)[C@H](Cc3cnc[nH]3)NC(=O)[C@H](CC(=O)O)NC(=O)[C@H](Cc3c[nH]c4ccc(F)cc34)NC(=O)[C@H](Cc3c[nH]c4ccc(F)cc34)NC(=O)[C@@H](C)NC(=O)[C@H](NC(C)=O)CCCCNC(=O)Cc3ccc(cc3)CNC(=O)C[C@@H](C(N)=O)NC(=O)[C@]3(C)CCCN3C2=O)cc1 [Compound 397] (Ac-[dK][dA][Trp(5-F)][Trp(5-F)]DHY(Me)[αMeP]D-NH2; linker 1-9 via X6)

>  <IC50>
1 to 12.1 µM

$$$$

// query Please report the recorded IC50 for COc1ccc(C[C@@H]2NC(=O)[C@H]([C@@H](C)O)NC(=O)[C@@H]3C[C@H](F)CN3C(=O)[C@H](Cc3c[nH]c4ccc(F)cc34)NC(=O)[C@H](Cc3c[nH]c4ccc(F)cc34)NC(=O)[C@@H](C)NC(=O)[C@H](CCCCN)NC(=O)[C@@H](NC(C)=O)CC/C=C/Cc3ccc(cc3)C[C@@H](C(N)=O)NC(=O)[C@]3(C)CCCN3C2=O)cc1 [Compound 138] (Ac-[Hag]K[dA][Trp(5-F)][Trp(5-F)][Pro(cis-4-F)]TY(Me)[αMeP][X29]-NH2; staple (E) 1-10) .
// result 0.1 to 1 µM

* * *

// IC50 lookup, one value per entry
# target_of_assay: human PCSK9 / human LDLR EGFa domain interaction (Homo sapiens (Human))
# Sequence (Q8NBP7 153-692): as above
# Sequence (Q8NBP7 31-152 partner): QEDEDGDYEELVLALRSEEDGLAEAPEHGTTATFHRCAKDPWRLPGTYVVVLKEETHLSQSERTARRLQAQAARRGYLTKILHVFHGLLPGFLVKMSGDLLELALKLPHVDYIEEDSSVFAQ
# assay_protocol: TR-FRET assay of inhibition of the PCSK9-LDLR protein-protein interaction
# Type: binding
# condition_parameters: TR-FRET, 20 nM human PCSK9, 20 nM human LDLR EGFa domain, 2 hours room temperature; read-out: IC50
# Description: A time-resolved fluorescence resonance energy (TR-FRET) assay was used to measure inhibition of the PCSK9-LDLR protein-protein interaction. […] Compounds were tested in dose-response and concentrations giving half-maximal inhibition calculated using a 4-parameter fit equation.
Starred links: 1 amine or outer side, 2 acyl side, 3 side chain; linkers in the order of their positions; H or OH if unused. Positions of bridges follow the written chain, without caps; N, C: chain ends. Non-standard residues stand in square brackets, D forms with d. Residues, ends and D or L forms follow the SMILES beside them. ξ: configuration not given here. NHCH2(1,3-C6H4)CH2CO = O=C(Cc1cccc(CN[*:1])c1)[*:2]; Trp(5-F) = N[C@@H](Cc1c[nH]c2ccc(F)cc12)C(=O)O; Asp(3,3-Me2) = CC(C)(C(=O)O)[C@H](N)C(=O)O; mXylylene = c1cc(C[*:1])cc(C[*:2])c1; αMeP = C[C@@]1(C(=O)O)CCCN1; ξD = NC(CC(=O)O)C(=O)O; Aib = CC(C)(N)C(=O)O; Mpa = O=C(O)CCS

>  <compound>
C[C@H]1NC(=O)[C@H](CCCCN)NC(=O)CCSCc2cccc(c2)CSC[C@@H](C(N)=O)NC(=O)[C@]2(C)CCCN2C(=O)[C@H](Cc2ccc(O)cc2)NC(=O)C(C)(C)NC(=O)[C@@H]2CCCN2C(=O)[C@H](Cc2c[nH]c3ccc(F)cc23)NC(=O)[C@H](Cc2c[nH]c3ccc(F)cc23)NC1=O [Compound 005] ([Mpa]K[dA][Trp(5-F)][Trp(5-F)]P[Aib]Y[αMeP]C-NH2; linker 1-10 via mXylylene)

>  <IC50>
0.1 to 100 nM

$$$$

// query What value of IC50 has been recorded for this entry: C[C@H]1NC(=O)[C@H](C(C)(C)C(=O)O)NC(=O)[C@H](Cc2c[nH]c3ccc(F)cc23)NC(=O)[C@H](Cc2c[nH]c3ccc(F)cc23)NC(=O)CNC(=O)[C@H](CCCCN)NC(=O)CCSCc2cccc(c2)CSC[C@@H](C(N)=O)NC(=O)[C@]2(C)CCCN2C(=O)[C@H](Cc2ccc(O)cc2)NC1=O [Compound 055] ([Mpa]KG[Trp(5-F)][Trp(5-F)][Asp(3,3-Me2)][dA]Y[αMeP]C-NH2; linker 1-10 via mXylylene)
// result 1000 to 12100 nM

// query IC50 value for entry COc1ccc(C[C@@H]2NC(=O)[C@H](Cc3cnc[nH]3)NC(=O)[C@H](CC(=O)O)NC(=O)[C@H](Cc3c[nH]c4ccc(F)cc34)NC(=O)[C@H](Cc3c[nH]c4ccc(F)cc34)NC(=O)[C@@H](C)NC(=O)Cc3cccc(c3)CNC(=O)CC(C(=O)O)NC(=O)[C@]3(C)CCCN3C2=O)cc1 (stereo partly drawn) [Compound 401] ([NHCH2(1,3-C6H4)CH2CO][dA][Trp(5-F)][Trp(5-F)]DHY(Me)[αMeP][ξD]-OH; lactam N-9)
// result 0.1 to 100 nM

* * *

# target_of_assay: PCSK9 (Homo sapiens (Human))
# assay_protocol: PCSK9 Alexa FRET Standard assay (displacement of AlexaFluor647 tagged cyclic peptide Reagent A)
# Assay type: binding
# condition_parameters: PCSK9 Alexa FRET Standard assay, 0.5 nM PCSK9, 20 nM AF cyclic peptide Reagent A; read-out: IC50
Starred links: 1 amine or outer side, 2 acyl side, 3 side chain; linkers in the order of their positions; H or OH if unused. Positions of bridges follow the written chain, without caps; N, C: chain ends. Non-standard residues stand in square brackets, D forms with d. Residues, ends and D or L forms follow the SMILES beside them. Triazole bridges read from a SMILES are 1,4-linked. *: point of attachment. Trp(5-F) = N[C@@H](Cc1c[nH]c2ccc(F)cc12)C(=O)O; Pro(cis-4-F) = O=C(O)[C@@H]1C[C@H](F)CN1; Lys(N3) = [N-]=[N+]=NCCCC[C@H](N)C(=O)O; X4 = O=C(CCSCc1cccc(CSCCN[*:1])c1)[*:2]; AEF = NCCOc1ccc(C[C@H](N)C(=O)O)cc1; NMeY = CN[C@@H](Cc1ccc(O)cc1)C(=O)O; αMeP = C[C@@]1(C(=O)O)CCCN1; dPra = C#CC[C@@H](N)C(=O)O; Isobutyryl = CC(C)C(=O)*
endpoint: IC50

>  <molecule>
COc1ccc(C[C@@H]2NC(=O)[C@H]([C@@H](C)O)NC(=O)[C@@H]3C[C@H](F)CN3C(=O)[C@H](Cc3c[nH]c4ccc(F)cc34)NC(=O)[C@H](Cc3c[nH]c4ccc(F)cc34)NC(=O)[C@@H](C)NC(=O)[C@H](CCCCN)NC(=O)[C@@H](NC(=O)C(C)C)CC(=O)NCCOc3ccc(cc3)C[C@@H](C(N)=O)NC(=O)[C@]3(C)CCCN3C2=O)cc1 [Compound 123] (Isobutyryl-DK[dA][Trp(5-F)][Trp(5-F)][Pro(cis-4-F)]TY(Me)[αMeP][AEF]-NH2; lactam 1-10)

>  <IC50>
0.00011 to 0.1 µM

$$$$

// query What value of measured IC50 is listed for C[C@H]1NC(=O)[C@H](CCCCN)NC(=O)CCSCc2cccc(c2)CSCCNC(=O)[C@]2(C)CCCN2C(=O)[C@H](Cc2ccc(O)cc2)N(C)C(=O)[C@H](Cc2c[nH]cn2)NC(=O)[C@H](CC(=O)O)NC(=O)[C@H](Cc2c[nH]c3ccc(F)cc23)NC(=O)[C@H](Cc2c[nH]c3ccc(F)cc23)NC1=O [Compound 277] (cyclo(DH[NMeY][αMeP][X4]K[dA][Trp(5-F)][Trp(5-F)])) ?
// result 0.00011 to 0.1 µM

// query GET /values?readout=IC50&item= CC(=O)N[C@@H]1Cc2cn(nn2)CCCC[C@@H](C(N)=O)NC(=O)[C@]2(C)CCCN2C(=O)[C@H](Cc2ccc(O)cc2)NC(=O)[C@H](Cc2cnc[nH]2)NC(=O)[C@H](CC(=O)O)NC(=O)[C@H](Cc2c[nH]c3ccc(F)cc23)NC(=O)[C@H](Cc2c[nH]c3ccc(F)cc23)NC(=O)CNC1=O [Compound 336] (Ac-[dPra]G[Trp(5-F)][Trp(5-F)]DHY[αMeP][Lys(N3)]-NH2; triazole 1-9)
// result 0.1 to 1 µM
